# system.name: human GLP-1 receptor (human, UniProt P43220 24-463)
# experiment.description: cell-based or functional assay
Numbered stars: 1 amine (or outer) side, 2 acyl side, 3 side chain; on linkers, the order of the positions; unused ones are H or OH. Square brackets hold non-standard residues; d marks the D form. Side chains are listed from the residue outwards. Ends that are not written are not given here. γGlu = O=C(O)[C@H](CCC(=O)[*:2])N[*:1]; X70 = not defined here; Aib = CC(C)(N)C(=O)O
measured.metric: EC50 hGLP-1R (cAMP) (pM)
Note: unit pM is implicit; provide only the numeric part.

Reported EC50 hGLP-1R (cAMP) for HXQGTFTSDLSKQKEEEAAQDFIEWLKAGGPSSGAPPPS (dSer at 2; K(γE-x53) at 14; C-terminal NH2) [SEQ ID NO: 16] : what is it? 2.8

I would be grateful if you could share the reported EC50 hGLP-1R (cAMP) for HXQGTFTSDLSKQKESXAAXLFIEWLKAGGPSSGAPPPS (dSer at 2; K(γE-x53) at 14; Aib at 17; Aib at 20; C-terminal NH2) [SEQ ID NO: 12] . 4.6

Query: EC50 hGLP-1R (cAMP); subject: HXQGTFTSDLSKQKDSRRAQDFIEWLKNGGPSSGAPPPS (dSer at 2; K(γE-x53) at 14; C-terminal NH[(CH2)13-CH3]) [SEQ ID NO: 110] 213

Fill in: EC50 hGLP-1R (cAMP) of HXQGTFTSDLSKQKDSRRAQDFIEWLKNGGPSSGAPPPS (dSer at 2; K(γE-x53) at 14; C-terminal NH[(CH2)12-OH]) [SEQ ID NO: 107] is ___ 188

// lookup EC50 hGLP-1R (cAMP) for HXQGTFTSDLSKQKESRRAQDFIEWLKNGGPSSGAPPPS (dSer at 2; K(γE-x53) at 14; C-terminal NH2) [SEQ ID NO: 116] 6

Give its EC50 hGLP-1R (cAMP) value. Item: H[Aib]QGTFTSDLSKQK([γGlu-X70])EEEAARLFIEWLKAGGPSSGAPPPS-NH2 (reading uncertain) [SEQ ID NO: 215] 5.3
